growth values, listed per item
Test system: SK-MEL-2 melanoma
PROTOCOL: NCI-60 one-dose screen, 48 h (100 = growth as untreated, 0 = no growth, -100 = all killed)
EXPERIMENTAL_PARAMETERS: 10 µM unless noted
This is part of a sample that, as a whole, favours compounds with a hit. Of some 83,000 tested, about 20% had one in any assay.

{"MOLECULE": "C=CCNc1ccc2c3c(cccc13)C(=O)N(N1C(=O)c3cccc4cccc(c34)C1=O)C2=O", "MEASURED_TARGET": "SK-MEL-2 melanoma", "UNIT_ABBREVIATION": "%", "growth": 107}
{"MOLECULE": "COc1cc(C2CC(c3ccc(SC)cc3)=NN2C(C)=O)cc(OC)c1OC (stereo not drawn)", "MEASURED_TARGET": "SK-MEL-2 melanoma", "UNIT_ABBREVIATION": "%", "growth": 65.5}
{"MOLECULE": "Nc1nn(C(=O)Nc2ccc(Cc3ccccc3)cc2)c2ccc(Cl)cc12", "MEASURED_TARGET": "SK-MEL-2 melanoma", "UNIT_ABBREVIATION": "%", "growth": 68.7}
{"MOLECULE": "Fc1cc2c(cc1Cl)N(c1ncnc3ccc(-c4cnc5cnccn45)cc13)CC2", "MEASURED_TARGET": "SK-MEL-2 melanoma", "UNIT_ABBREVIATION": "%", "growth": 102}
{"MOLECULE": "Cc1cc2[nH]c(=O)c3c4ncccc4cn3c2cc1C", "MEASURED_TARGET": "SK-MEL-2 melanoma", "UNIT_ABBREVIATION": "%", "growth": 93.8}
{"MOLECULE": "CCc1ccccc1-n1c(N)c(C#N)c(-c2ccc(Cl)cc2)c(C#N)c1=O", "MEASURED_TARGET": "SK-MEL-2 melanoma", "UNIT_ABBREVIATION": "%", "growth": 117}
{"MOLECULE": "O=C(/C=C/c1sc(Cl)nc1Cl)c1ccc(F)cc1", "MEASURED_TARGET": "SK-MEL-2 melanoma", "UNIT_ABBREVIATION": "%", "growth": 95.5}
{"MOLECULE": "COc1cc2cc(Oc3ccc(NC(=O)Nc4ccc(Cl)c(Cl)c4)cc3)c(C)nc2cc1OCCN1CCOCC1", "MEASURED_TARGET": "SK-MEL-2 melanoma", "UNIT_ABBREVIATION": "%", "growth": 107}
{"MOLECULE": "COC(=O)C(Cc1ccccc1)NC(=O)NC(=O)NC(=O)CI (stereo not drawn)", "MEASURED_TARGET": "SK-MEL-2 melanoma", "UNIT_ABBREVIATION": "%", "growth": 94.9}
{"MOLECULE": "COc1ccc(-c2cc(-c3cc(OC)c(OC)c(OC)c3)nc(N3CCOCC3)c2C#N)cc1", "MEASURED_TARGET": "SK-MEL-2 melanoma", "UNIT_ABBREVIATION": "%", "growth": 76.1}
{"MOLECULE": "Cc1[nH]c(C(=O)Nc2ccc(C(=O)N3CCNCC3)cc2OC(C)C)c(Cl)c1Cl", "MEASURED_TARGET": "SK-MEL-2 melanoma", "UNIT_ABBREVIATION": "%", "growth": 106}
{"MOLECULE": "CC(=O)CC(c1ccccc1)c1c(C)[nH]c2ccccc12 (stereo not drawn)", "MEASURED_TARGET": "SK-MEL-2 melanoma", "UNIT_ABBREVIATION": "%", "growth": 105}
{"MOLECULE": "CCOC(=O)C1=C(N)Oc2c(sc3c(CC)cccc23)C1c1ccc(F)cc1 (stereo not drawn)", "MEASURED_TARGET": "SK-MEL-2 melanoma", "UNIT_ABBREVIATION": "%", "growth": 52.1}
{"MOLECULE": "O=C(N=c1oc2ccccc2cc1-c1cc2ccccc2[nH]1)Nc1ccc(Cl)cc1", "MEASURED_TARGET": "SK-MEL-2 melanoma", "UNIT_ABBREVIATION": "%", "growth": 113}
{"MOLECULE": "O=c1c2cc(F)ccc2sc2c(NCCCNCCO)nc3ccc(F)cc3c12", "MEASURED_TARGET": "SK-MEL-2 melanoma", "UNIT_ABBREVIATION": "%", "growth": 97.3}
{"MOLECULE": "COc1ccc2c(c1)nc(NNC(=O)c1cnccn1)c1cccn12", "MEASURED_TARGET": "SK-MEL-2 melanoma", "UNIT_ABBREVIATION": "%", "growth": 64.8}
{"MOLECULE": "CCC12CCC[N+]3([O-])CCC4(C(=Nc5ccccc54)C(O)(C(=O)OC)C1)C23 (stereo not drawn)", "MEASURED_TARGET": "SK-MEL-2 melanoma", "UNIT_ABBREVIATION": "%", "growth": 121}
{"MOLECULE": "CCOC(=O)Nc1ccc(C(=O)/C=C/c2ccccc2)cc1", "MEASURED_TARGET": "SK-MEL-2 melanoma", "UNIT_ABBREVIATION": "%", "growth": 105}
{"MOLECULE": "O=C(O)CCC/C=C\\C[C@H]1C=CC(=O)/C1=C/C[C@@H](O)CCc1cccc(C(F)(F)F)c1", "MEASURED_TARGET": "SK-MEL-2 melanoma", "UNIT_ABBREVIATION": "%", "growth": -6.24}
{"MOLECULE": "CC(=O)N1CCN(c2ccc(OCC3CO[C@](Cn4ccnc4)(c4ccc(Cl)cc4Cl)O3)cc2)CC1 (stereo partly drawn)", "MEASURED_TARGET": "SK-MEL-2 melanoma", "UNIT_ABBREVIATION": "%", "growth": 86.8}
{"MOLECULE": "N#Cc1c(-c2ccccc2)nc(SCC(=O)Nc2nc(-c3ccc(Cl)cc3)cs2)[nH]c1=O", "MEASURED_TARGET": "SK-MEL-2 melanoma", "UNIT_ABBREVIATION": "%", "growth": 92.3}
{"MOLECULE": "CC(C)OC(=O)Nc1ccc(-c2nc(-c3cccc(OCCN4CCOCC4)c3)c(-c3ccnc(Br)c3)[nH]2)cc1", "MEASURED_TARGET": "SK-MEL-2 melanoma", "UNIT_ABBREVIATION": "%", "growth": 32.5}
{"MOLECULE": "CN(C(=O)NCc1cccc(F)c1Cl)[C@H](COC(=O)Nc1cc2ccccc2cn1)CC(O)CO (stereo partly drawn)", "MEASURED_TARGET": "SK-MEL-2 melanoma", "UNIT_ABBREVIATION": "%", "growth": 113}
{"MOLECULE": "NC1=NC(c2cccc(Br)c2)c2sc3ccc(Cl)cc3c2N1 (stereo not drawn)", "MEASURED_TARGET": "SK-MEL-2 melanoma", "UNIT_ABBREVIATION": "%", "growth": 108}
{"MOLECULE": "O=c1[nH]c2c(ccc3cnccc32)c2c1CCC2", "MEASURED_TARGET": "SK-MEL-2 melanoma", "UNIT_ABBREVIATION": "%", "growth": -15.9}
{"MOLECULE": "COc1ccc2c(c1)/C(=C/c1sc(=S)n(Cc3ccco3)c1O)C=N2", "MEASURED_TARGET": "SK-MEL-2 melanoma", "UNIT_ABBREVIATION": "%", "growth": 27}
{"MOLECULE": "COc1c(C2CC(=O)Nc3c2c(C)nn3-c2nc3ccccc3[nH]2)cc2c(c1OC)OCO2 (stereo not drawn)", "MEASURED_TARGET": "SK-MEL-2 melanoma", "UNIT_ABBREVIATION": "%", "growth": 29.6}
{"MOLECULE": "COc1ccc(/C=N/Nc2cc(=O)[nH]c3ccc(Cl)cc23)cc1", "MEASURED_TARGET": "SK-MEL-2 melanoma", "UNIT_ABBREVIATION": "%", "growth": 48.8}
{"MOLECULE": "COc1cccc(Cc2cc(-c3ccccc3)nn(CC(=O)c3ccccc3)c2=O)c1", "MEASURED_TARGET": "SK-MEL-2 melanoma", "UNIT_ABBREVIATION": "%", "growth": 85.4}
{"MOLECULE": "CNc1nc2c(s1)C(c1cccc(F)c1)CC(=O)N2 (stereo not drawn)", "MEASURED_TARGET": "SK-MEL-2 melanoma", "UNIT_ABBREVIATION": "%", "growth": 100}
{"MOLECULE": "C/C(=C(/c1ccccc1)c1ccc(N2C(=O)c3cccc4c(N5CCN(C)CC5)ccc(c34)C2=O)cc1)c1ccccc1", "MEASURED_TARGET": "SK-MEL-2 melanoma", "UNIT_ABBREVIATION": "%", "growth": 116}
{"MOLECULE": "Cc1cccc(NC2=C(Cl)C(=O)c3nc(C)ccc3C2=O)c1", "MEASURED_TARGET": "SK-MEL-2 melanoma", "UNIT_ABBREVIATION": "%", "growth": -9.34}
{"MOLECULE": "CNCCCNc1nc2ccccc2c2c(=O)c3cc(F)ccc3sc12", "MEASURED_TARGET": "SK-MEL-2 melanoma", "UNIT_ABBREVIATION": "%", "growth": 91}
